pIC50: −log10 of the molar value.
Consider the following pIC50 values measured on human TNIK (N-terminal segment, TNIK_N, residues 1-314) (Homo sapiens (Human)).
Sequence (Q9UKE5 1-314): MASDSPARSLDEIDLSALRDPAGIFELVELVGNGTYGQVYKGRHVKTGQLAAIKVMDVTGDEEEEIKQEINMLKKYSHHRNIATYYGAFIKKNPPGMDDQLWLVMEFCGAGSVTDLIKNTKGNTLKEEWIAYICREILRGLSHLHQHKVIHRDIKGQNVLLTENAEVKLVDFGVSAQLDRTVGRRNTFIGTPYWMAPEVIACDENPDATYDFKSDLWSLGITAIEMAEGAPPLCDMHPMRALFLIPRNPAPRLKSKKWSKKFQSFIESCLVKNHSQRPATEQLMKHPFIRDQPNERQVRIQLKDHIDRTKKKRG
Experimental Endpoint: pIC50

CC(=O)Nc1ccc(C(=O)Nc2sc(Nc3ccc4ccccc4c3)nc2C(N)=O)cc1 [Example 2]	7.70

A. NC(=O)c1nc(Nc2ccc3ccccc3c2)sc1NC(=O)c1ccc(CN2CCC(O)CC2)cc1 [Example 173]
B. NC(=O)c1nc(Nc2ccnc3ccccc23)sc1NC(=O)c1ccc(Cn2ccnc2)cc1 [Example 255]
C. Cc1nnc(Cc2ccc(C(=O)Nc3sc(Nc4ccc5ccccc5c4)nc3C(N)=O)cc2)o1 [Example 257]
Give the ascending ranking of the items by reported pIC50. Put the labels in the order asked and list them.
B, C, A

P. Cc1cn(Cc2ccc(C(=O)Nc3sc(Nc4ccc5ccccc5c4)nc3C(N)=O)cc2)cn1 [Example 238]
Q. CC(C)=CC(=O)Nc1sc(Nc2ccc3ccc(F)cc3c2)nc1C(N)=O [Example 128]
Please let me know which one, P or Q , has a lower measured pIC50 value. Give the label under which the chosen entry appears.
Q

P. NC(=O)c1nc(Nc2ccc3ccc(F)cc3c2)sc1NC(=O)c1ccc(Cn2ccnc2)cc1 [Example 262]
Q. NC(=O)c1nc(Nc2ccc3ccccc3c2)sc1NC(=O)c1ccc(N)cc1 [Example 16]
Please let me know which one, P or Q , has a lower measured pIC50 value. Give the label under which the chosen entry appears.
Q
